# measurementTarget: T1, cynomolgus monkey IL-33 expressed with a C-terminal hexahistidine tag (cynomolgus monkey)
# T1 construct: also called MfIL-33-6His; Mf-IL-33-6His
# T1 chain: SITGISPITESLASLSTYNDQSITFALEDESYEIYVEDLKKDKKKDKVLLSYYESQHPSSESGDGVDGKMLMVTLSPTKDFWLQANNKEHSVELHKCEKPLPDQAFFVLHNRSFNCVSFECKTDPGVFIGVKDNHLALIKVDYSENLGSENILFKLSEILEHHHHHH
# protocolSummary: SPR 37C pH7.4, mAb captured
Parameter threshold = 0.006 s⁻¹. Response is y when koff meets or exceeds it, else n.

Please review the following examples before continuing.
H4H9633P (antibody, human IgG4, V domains shown, Human IgG4 Fc (H4H)) VH: EVQLVESGGGLVQPGGSLRLSCAASGFTFSSYVMSWVRQAPGKGLEWVSSISGNGGSTNYADSVKGRFTISRDNSKNTLFLEMNSLRAEDTAVYYCAKSLGTTTTFLGFDYWGQGTLVTVSS VL: DIQMTQSPSSVSASVGDRVTITCRASQGISSWLAWYQQKPGKAPKLLIYAASSLQSGVPSRFSGSGSGTYFTLTISSLQPEDFATYYCQQANSFPLTFGGGTKVEIK :: y
H1M9559N (antibody, mouse IgG1, V domains shown, Human variable domains, mouse IgG1 Fc (H1M)) VH: QVQLVESGGGVVQPGRSLRLSCAASGFTFSSYGMHWVRQAPGKGLEWVAVIWYDGRNKYYTDSVKGRFTISRDNSKNTLYLQMDSLRAEDTAVYYCARERYISSYYGGFDPWGQGALVTVSS VL: DIQMTQSPSSVSASVGDRVTITCRASQGISSWLAWYQQKPGKAPKVLIYAASSLQSGVPSRFSGSGSGTDFTLTISSLQPEDFATYYCQQANSFPFTFGPGTKLDIK :: n

Please turn your attention to the following entry.
Please indicate if the recorded koff for H1M9568N (antibody, mouse IgG1, V domains shown, Human variable domains, mouse IgG1 Fc (H1M)) VH: QVLLVQSGAEVKKPGATVKVSCKASGSTFTGYYMHWVRQAPGQGLEWMGWINPNNGGTNYAQKFQGRVTMTRDTSISTAYMELSRLRSDDTAVYYCARELRYNWKSWGQGTLVTVSS VL: EIVLTQSPGTLSLSPGERVTLSCRASQSVGRPYLAWYQQIPGQAPRLLIYGASSRATDIPDRFSGNGSGTDFTLTISRLEPEDFAVYYCQQYDNSPYTFGQGTRLEIK meets or exceeds 0.006 s⁻¹.
n
